Target: Toll-like receptor 7 (Homo sapiens, UniProt Q9NYK1)
Sequence (Q9NYK1 whole entry): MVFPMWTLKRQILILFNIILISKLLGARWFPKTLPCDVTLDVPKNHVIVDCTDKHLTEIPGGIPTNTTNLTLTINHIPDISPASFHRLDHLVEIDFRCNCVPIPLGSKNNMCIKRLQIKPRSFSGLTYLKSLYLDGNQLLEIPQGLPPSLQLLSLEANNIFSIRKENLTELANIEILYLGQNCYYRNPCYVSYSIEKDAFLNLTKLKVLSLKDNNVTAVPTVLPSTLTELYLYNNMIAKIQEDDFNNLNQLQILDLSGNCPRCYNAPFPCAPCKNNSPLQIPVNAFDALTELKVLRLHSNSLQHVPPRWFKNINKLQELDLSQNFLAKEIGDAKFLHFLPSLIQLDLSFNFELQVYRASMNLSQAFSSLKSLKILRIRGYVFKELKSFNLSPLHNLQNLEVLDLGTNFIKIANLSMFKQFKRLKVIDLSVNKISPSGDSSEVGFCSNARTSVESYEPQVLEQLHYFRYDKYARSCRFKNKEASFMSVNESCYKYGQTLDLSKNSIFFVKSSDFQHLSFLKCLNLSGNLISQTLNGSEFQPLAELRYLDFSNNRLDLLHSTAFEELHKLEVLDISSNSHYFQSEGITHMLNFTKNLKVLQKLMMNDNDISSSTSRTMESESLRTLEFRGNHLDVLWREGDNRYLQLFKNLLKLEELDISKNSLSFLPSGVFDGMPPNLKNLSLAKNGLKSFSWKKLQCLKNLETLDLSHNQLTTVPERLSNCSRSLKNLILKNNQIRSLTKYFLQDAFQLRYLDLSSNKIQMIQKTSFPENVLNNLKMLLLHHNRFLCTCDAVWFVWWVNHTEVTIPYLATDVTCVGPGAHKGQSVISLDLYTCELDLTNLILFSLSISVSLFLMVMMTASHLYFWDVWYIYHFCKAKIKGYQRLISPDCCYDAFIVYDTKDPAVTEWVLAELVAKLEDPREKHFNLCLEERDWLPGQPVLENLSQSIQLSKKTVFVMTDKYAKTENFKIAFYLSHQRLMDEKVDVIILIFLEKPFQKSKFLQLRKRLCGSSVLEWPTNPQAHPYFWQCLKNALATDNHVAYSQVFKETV
Assay: Antagonist activity at TLR7 in human PBMC assessed as inhibition of gardiquimod-induced IL-6 release after 12 hrs by bead array assay
Type: functional
assayEndpoint: pIC50
// pIC50 here means minus log10 of the molar concentration (mol/L)

Task: Bench note: what pIC50 did Nc1nc2ccccc2c2c1nc(CCCc1nc3c(N)nc4ccccc4c3n1Cc1ccccc1)n2Cc1ccccc1 show?
Output: 7.30
